molecular target: BrSK2 (Homo sapiens (Human), UniProt Q8IWQ3); experiment: KinaseProfiler off-target kinase profiling; type: biochemical; conditions: 10 μM, ATP near Km
Sequence (Q8IWQ3 whole entry): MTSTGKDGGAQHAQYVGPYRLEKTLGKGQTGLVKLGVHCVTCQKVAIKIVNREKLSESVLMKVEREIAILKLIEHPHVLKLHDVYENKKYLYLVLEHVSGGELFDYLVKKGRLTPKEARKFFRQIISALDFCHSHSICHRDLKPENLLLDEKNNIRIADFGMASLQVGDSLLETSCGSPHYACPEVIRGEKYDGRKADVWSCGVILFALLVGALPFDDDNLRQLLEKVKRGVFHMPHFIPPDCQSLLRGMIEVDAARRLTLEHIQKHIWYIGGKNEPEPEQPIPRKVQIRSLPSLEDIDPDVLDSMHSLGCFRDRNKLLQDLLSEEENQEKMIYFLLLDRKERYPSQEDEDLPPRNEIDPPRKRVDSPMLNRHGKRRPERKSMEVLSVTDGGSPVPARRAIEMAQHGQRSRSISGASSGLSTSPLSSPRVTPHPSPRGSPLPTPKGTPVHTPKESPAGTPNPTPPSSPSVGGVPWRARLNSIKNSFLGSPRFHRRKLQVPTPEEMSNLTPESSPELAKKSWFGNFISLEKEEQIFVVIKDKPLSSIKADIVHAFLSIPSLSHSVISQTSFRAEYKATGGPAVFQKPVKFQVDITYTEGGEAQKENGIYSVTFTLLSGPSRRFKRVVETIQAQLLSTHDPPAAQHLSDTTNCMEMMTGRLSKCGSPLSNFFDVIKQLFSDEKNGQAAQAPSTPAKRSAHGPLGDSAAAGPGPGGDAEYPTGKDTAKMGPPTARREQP
QUANTITY NAME: Avg. POC
Field note: include the unit after the figure.

// below: answered compounds
| COMPOUND | Avg. POC |
| --- | --- |
| COCc1ccc2c(c1)C(NC(=O)Nc1c(C)c(-c3cnn(C)c3)nn1-c1ccccc1)COC2 (stereo not shown) | 128.5 POC |
| Cc1c(-c2ccc(=O)n(C)c2)nn(-c2ccccc2)c1NC(=O)NC1CN(CC(F)(F)F)Cc2ccccc21 (stereo not shown) | 118 POC |
| Cc1c(-c2cnn(C)c2)nn(-c2ccccc2)c1NC(=O)N[C@H]1CCCc2ccccc21 | 139.5 POC |

Turning now to a further compound:
Query block: Recall and state the measured Avg. POC for Cc1c(-c2cnn(C)c2)nn(-c2ccccc2)c1NC(=O)NC1CCOc2cc(F)ccc21 (stereo not shown) .
Result block: 147 POC

* * *

Answer each item with its documented Avg. POC.
molecular target: UniProt O14757; assay: KinaseProfiler off-target kinase profiling; type: biochemical; conditions: 10 μM, ATP near Km
Sequence (O14757 whole entry): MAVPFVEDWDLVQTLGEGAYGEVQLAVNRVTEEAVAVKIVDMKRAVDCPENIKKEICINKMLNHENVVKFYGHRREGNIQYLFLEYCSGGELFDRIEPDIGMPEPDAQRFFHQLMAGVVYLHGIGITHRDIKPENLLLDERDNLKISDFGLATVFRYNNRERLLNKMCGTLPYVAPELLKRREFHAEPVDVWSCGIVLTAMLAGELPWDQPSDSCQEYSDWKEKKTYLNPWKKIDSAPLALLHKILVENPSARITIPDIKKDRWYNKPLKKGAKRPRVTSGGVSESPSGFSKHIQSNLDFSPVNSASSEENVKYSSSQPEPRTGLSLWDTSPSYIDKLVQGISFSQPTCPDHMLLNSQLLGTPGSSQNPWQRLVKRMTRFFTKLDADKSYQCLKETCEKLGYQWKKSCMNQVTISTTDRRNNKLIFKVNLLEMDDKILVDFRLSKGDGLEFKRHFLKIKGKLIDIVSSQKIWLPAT
Numbers only, in POC.

// below: answered compounds
| COMPOUND | TARGET | Avg. POC (POC) |
| --- | --- | --- |
| COCc1ccc2c(c1)C(NC(=O)Nc1c(C)c(-c3cnn(C)c3)nn1-c1ccccc1)COC2 (stereo not shown) | UniProt O14757 | 103 |
| Cc1c(-c2ccc(=O)n(C)c2)nn(-c2ccccc2)c1NC(=O)NC1CN(CC(F)(F)F)Cc2ccccc21 (stereo not shown) | UniProt O14757 | 70.5 |

Please supply Avg. POC for each of the following items, keeping them in order.
1. Cc1c(-c2cnn(C)c2)nn(-c2ccccc2)c1NC(=O)NC1CCOc2cc(F)ccc21 (stereo not shown)
2. Cc1c(-c2cnn(C)c2)nn(-c2ccccc2)c1NC(=O)N[C@H]1CCCc2ccccc21

Result block:
[99.5, 106.5]

* * *

biological target: CAMK1 (Homo sapiens (Human), UniProt Q14012); assay: KinaseProfiler off-target kinase profiling; format: biochemical; conditions: 10 μM, ATP near Km
Sequence (Q14012 whole entry): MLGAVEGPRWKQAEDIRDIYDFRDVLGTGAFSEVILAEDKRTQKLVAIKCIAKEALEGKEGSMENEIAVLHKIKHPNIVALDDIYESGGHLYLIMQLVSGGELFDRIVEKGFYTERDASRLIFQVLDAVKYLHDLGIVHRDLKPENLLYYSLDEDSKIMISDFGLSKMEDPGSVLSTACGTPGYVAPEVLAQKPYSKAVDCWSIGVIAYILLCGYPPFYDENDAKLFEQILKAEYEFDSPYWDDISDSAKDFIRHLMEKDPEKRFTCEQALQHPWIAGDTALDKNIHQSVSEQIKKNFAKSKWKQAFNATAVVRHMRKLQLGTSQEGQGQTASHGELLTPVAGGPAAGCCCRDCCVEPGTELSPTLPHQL
Answer each item with its documented Avg. POC.
One number for each entry, in POC.

// below: answered compounds
| COMPOUND | UNIT ABBREV | VALUE REPORTED |
| --- | --- | --- |
| Cc1c(-c2cnn(C)c2)nn(-c2ccccc2)c1NC(=O)N[C@H]1CCCc2ccccc21 [Example 2] | POC | 109.5 |
| Cc1c(-c2ccc(=O)n(C)c2)nn(-c2ccccc2)c1NC(=O)NC1CN(CC(F)(F)F)Cc2ccccc21 (stereo not shown) [Example 26] | POC | 106 |
| Cc1c(-c2cnn(C)c2)nn(-c2ccccc2)c1NC(=O)NC1CCOc2cc(F)ccc21 (stereo not shown) [Example 12] | POC | 102 |

Turning now to a further compound:
Query block: Recall and state the measured Avg. POC for COCc1ccc2c(c1)C(NC(=O)Nc1c(C)c(-c3cnn(C)c3)nn1-c1ccccc1)COC2 (stereo not shown) [Example 32] .
Result block: 100

* * *

target: ROCK-II (Homo sapiens (Human)); experiment: KinaseProfiler off-target kinase profiling; type: biochemical; conditions: 10 μM, ATP near Km
Sequence (O75116 whole entry): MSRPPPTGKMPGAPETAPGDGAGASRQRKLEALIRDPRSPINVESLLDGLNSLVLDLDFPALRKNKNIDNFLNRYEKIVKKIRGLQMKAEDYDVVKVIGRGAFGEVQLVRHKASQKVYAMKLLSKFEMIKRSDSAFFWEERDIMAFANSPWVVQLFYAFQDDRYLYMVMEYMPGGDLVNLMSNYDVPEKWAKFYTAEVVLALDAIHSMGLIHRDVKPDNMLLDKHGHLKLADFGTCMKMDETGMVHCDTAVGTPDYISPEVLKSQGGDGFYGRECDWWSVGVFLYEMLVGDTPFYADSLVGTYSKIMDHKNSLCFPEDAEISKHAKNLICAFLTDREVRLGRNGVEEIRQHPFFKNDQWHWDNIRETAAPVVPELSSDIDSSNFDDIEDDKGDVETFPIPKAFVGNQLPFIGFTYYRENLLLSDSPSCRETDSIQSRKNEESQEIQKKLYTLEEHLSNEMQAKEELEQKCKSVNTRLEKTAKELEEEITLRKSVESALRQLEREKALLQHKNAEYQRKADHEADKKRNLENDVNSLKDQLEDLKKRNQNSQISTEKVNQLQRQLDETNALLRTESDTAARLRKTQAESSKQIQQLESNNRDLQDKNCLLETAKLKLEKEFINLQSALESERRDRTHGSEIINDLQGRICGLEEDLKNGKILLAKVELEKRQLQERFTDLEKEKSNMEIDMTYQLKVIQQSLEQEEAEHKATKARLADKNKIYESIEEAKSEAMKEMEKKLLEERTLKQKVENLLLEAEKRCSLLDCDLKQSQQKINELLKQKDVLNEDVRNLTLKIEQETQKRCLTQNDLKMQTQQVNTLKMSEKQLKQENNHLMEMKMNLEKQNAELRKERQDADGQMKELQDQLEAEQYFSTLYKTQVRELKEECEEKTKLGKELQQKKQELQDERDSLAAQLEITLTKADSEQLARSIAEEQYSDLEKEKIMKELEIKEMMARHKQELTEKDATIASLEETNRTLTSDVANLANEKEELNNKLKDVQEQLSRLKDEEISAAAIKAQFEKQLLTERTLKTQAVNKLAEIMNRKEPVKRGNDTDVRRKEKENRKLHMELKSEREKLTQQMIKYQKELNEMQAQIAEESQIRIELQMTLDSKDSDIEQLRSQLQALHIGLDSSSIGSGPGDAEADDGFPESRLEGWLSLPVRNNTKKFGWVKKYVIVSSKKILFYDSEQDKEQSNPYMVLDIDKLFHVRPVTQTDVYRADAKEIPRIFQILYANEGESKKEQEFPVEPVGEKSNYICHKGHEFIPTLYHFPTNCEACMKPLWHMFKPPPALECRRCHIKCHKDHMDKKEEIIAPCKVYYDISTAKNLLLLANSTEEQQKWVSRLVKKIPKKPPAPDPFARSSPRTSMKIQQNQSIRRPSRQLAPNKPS
QUANTITY NAME: Avg. POC (POC)
One number for each entry, in POC.

| COMPOUND | QUANTITY NAME | VALUE REPORTED |
| --- | --- | --- |
| Cc1c(-c2cnn(C)c2)nn(-c2ccccc2)c1NC(=O)N[C@H]1CCCc2ccccc21 [Example 2] | Avg. POC | 108 |
| Cc1c(-c2ccc(=O)n(C)c2)nn(-c2ccccc2)c1NC(=O)NC1CN(CC(F)(F)F)Cc2ccccc21 (stereo not shown) [Example 26] | Avg. POC | 110 |
| COCc1ccc2c(c1)C(NC(=O)Nc1c(C)c(-c3cnn(C)c3)nn1-c1ccccc1)COC2 (stereo not shown) [Example 32] | Avg. POC | 106 |

Turning now to a further compound:
Query block: Consider the compound Cc1c(-c2cnn(C)c2)nn(-c2ccccc2)c1NC(=O)NC1CCOc2cc(F)ccc21 (stereo not shown) [Example 12] tested on ROCK-II (Homo sapiens (Human)); state its Avg. POC.
Result block: 99

The reported numbers originate from patent US10351575B2.
